src = patent US9067898B1

Target: Human GPR120 short form (Homo sapiens, UniProt Q5NUL3)
Construct: expressed in transfected cells
Assay: Human GPR120 calcium flux assay (FLIPR), Procedure Calcium A
Assay type: cell-based
Settings: HEK-293 cells expressing human GPR120 short form, 2500 cells/well; read-out: GPR120 Ca2+ Assay A EC50
Text: This in vitro assay serves to assess test compound agonist activity against the short splice variant (SVS with Accession number NM_001195755.1 confirmed by sequencing data) of the GPR120 receptor. […] Upon stimulation, intracellular released Ca^+2 can bind to the dye and alter its fluorescence intensity. This increase in fluorescence signal, and thus the flux in intracellular [Ca^2+], is detected and quantitated by fluorescence imaging using a FLIPR reader. […]
pEC50: −log10 of the molar value.
Measurement Kind: pEC50

Chemical Structure	pEC50
CCc1ccc(-c2sc(C)c(C(F)(F)F)c2COc2c(F)cc(CCCO)cc2F)cc1	7.32
C#Cc1ccc(-c2nscc2COc2ccc(CCC(=O)O)c(C)c2C)cc1	6.69
O=C(O)CCc1cc(F)c(OCc2c(-c3ccc(Cl)c(F)c3)nsc2C(F)(F)F)c(F)c1F	6.86
COc1ccc(-c2csc(C(F)(F)F)c2COc2c(F)cc(CCCO)cc2F)cc1	6.81
O=C(O)CCc1ccc(OCc2c(C(F)(F)F)nsc2-c2ccc(Cl)cc2)cc1OC(F)(F)F	6.70

1. CCc1ccc(-c2nsc(C(F)(F)F)c2COc2ccc(CCC(=O)O)c3c2CCC3)cc1
2. Cc1c(CCC(=O)O)ccc(OCc2c(-c3ccc(Cl)cc3)nsc2C(F)(F)F)c1C
3. OCC#Cc1cc(F)c(OCc2c(-c3ccc(Cl)cc3)nsc2C(F)(F)F)c(F)c1
4. CCc1ccc(-c2nsc(C(F)(F)F)c2COc2ccc(CCC(=O)O)c(F)c2F)cc1
## Input Task field, ranking: reported pEC50, descending order. List each label, following the requested order.
## Output 4, 1, 2, 3
(4: 7.39, 1: 7.10, 2: 6.81, 3: 6.22)

a. Cc1c(CCC(=O)O)ccc(OCc2c(Cl)nsc2-c2ccccc2)c1C
b. COc1cc(F)c(-c2nsc(C(F)(F)F)c2COc2c(F)cc(CCC(=O)O)cc2F)c(F)c1
## Input Which record shows the lower pEC50: the first, a , or the second, b ? Answer = label.
## Output b

I. Cc1ccc(-c2csc(C(F)(F)F)c2COc2c(F)cc(CCCO)cc2F)cn1
II. CCc1ccc(-c2nsc(C(F)(F)F)c2COc2ccc(CCC(=O)O)c(F)c2C(F)(F)F)cc1
III. Cc1cc(OCc2c(-c3ncc(Cl)cc3F)nsc2C(F)(F)F)c(F)cc1CCC(=O)O
## Input Please put the entries in order of rising pEC50. Labels, ranked as asked.
## Output III, II, I
(III: 6.26, II: 6.73, I: 7.05)

1. O=C(O)CCc1cc(F)c(OCc2c(-c3ccc(Cl)cc3)nsc2C(F)(F)F)c(F)c1F
2. CCc1ccc(-c2ccsc2COc2ccc(CCCO)c(F)c2F)cc1
3. CCCc1ccc(-c2snc(Cl)c2COc2ccc(CCC(=O)O)c(C)c2C)cc1
## Input Arrange the 3 entries by pEC50 so the values rise. Provide your answer as the labels ordered per the instruction.
## Output 3, 1, 2
(3: 6.16, 1: 6.98, 2: 7.23)

1. CCc1ccc(-c2nsc(C(F)(F)F)c2COc2ccc(CCC(=O)O)c(C)c2C)cc1
2. Cc1ccc(-c2nsc(C(F)(F)F)c2COc2ccc(CCC(=O)O)c(C)c2C)c(F)c1
3. CCc1ccc(-c2nsc(C(C)(F)F)c2COc2ccc(CCC(=O)O)c(C)c2C)cc1
## Input Order these by pEC50, descending, and give the full ranking. Form entry: labels listed in requested order.
## Output 2, 1, 3

###

Target: Human GPR120 short form (Homo sapiens)
Construct: expressed in transfected cells
Sequence (Q5NUL3 1-361): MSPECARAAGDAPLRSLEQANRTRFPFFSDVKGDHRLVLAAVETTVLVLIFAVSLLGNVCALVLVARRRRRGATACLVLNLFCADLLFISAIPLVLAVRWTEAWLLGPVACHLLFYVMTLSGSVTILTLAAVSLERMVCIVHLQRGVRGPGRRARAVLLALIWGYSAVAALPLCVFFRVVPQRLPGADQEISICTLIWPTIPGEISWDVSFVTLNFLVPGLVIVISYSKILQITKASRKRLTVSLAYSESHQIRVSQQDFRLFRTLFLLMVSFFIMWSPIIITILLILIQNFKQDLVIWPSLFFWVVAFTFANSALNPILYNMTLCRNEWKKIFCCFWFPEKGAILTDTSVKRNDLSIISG
Test: Human GPR120 calcium flux assay (FLIPR), Procedure Calcium A
Assay type: cell-based
Conditions: HEK-293 cells expressing human GPR120 short form, 2500 cells/well; read-out: GPR120 Ca2+ Assay A EC50
Description: This in vitro assay serves to assess test compound agonist activity against the short splice variant (SVS with Accession number NM_001195755.1 confirmed by sequencing data) of the GPR120 receptor. […] Upon stimulation, intracellular released Ca^+2 can bind to the dye and alter its fluorescence intensity. This increase in fluorescence signal, and thus the flux in intracellular [Ca^2+], is detected and quantitated by fluorescence imaging using a FLIPR reader. […]
Measurement Kind: EC50 (nM)

In the examples that follow, each entry is paired with its recorded EC50.
Molecule	Result Value
CCc1ccc(-c2nsc(C(F)(F)F)c2COc2c(F)c(F)c(CCC(=O)O)c(F)c2F)cc1 [Cpd 118]	105
CC(Cc1cc(F)c(OCc2c(-c3ccc(Cl)c(F)c3)nsc2C(F)(F)F)c(F)c1)C(=O)O (stereo not shown) [Cpd 90]	67

a. Cc1cc(OCc2c(-c3ccc(Cl)c(F)c3)nsc2C(F)(F)F)c(F)cc1CCC(=O)O [Cpd 148]
b. COc1ccc(-c2snc(Cl)c2COc2ccc(CCC(=O)O)c(C)c2C)cc1 [Cpd 186]
## Input Identify the item whose EC50 is the smaller number: a or b Pick one; state its label.
## Output a

###

target: Human GPR120 short form (Homo sapiens, UniProt Q5NUL3); construct: expressed in transfected cells; test: Human GPR120 calcium flux assay (FLIPR), Procedure Calcium A; format: cell-based; conditions: HEK-293 cells expressing human GPR120 short form, 2500 cells/well; read-out: GPR120 Ca2+ Assay A EC50
Measurement Kind: EC50 (nM)

P. Cc1ccc(-c2snc(-c3ccccc3)c2COc2c(F)cc(CCC(=O)O)cc2F)c(F)c1
Q. O=C(O)CCc1cc(F)c(OCc2c(-c3ccc(Cl)cc3)csc2C(F)(F)F)c(F)c1
R. COc1ccc(-c2nsc(C(F)(F)F)c2COc2ccc(CCC(=O)O)c(C)c2C)cc1F
## Input With the 3 compounds above, produce a list ordered by ascending EC50. Lab note: final answer is the ordered label list.
## Output Q, R, P
(Q: 70 nM, R: 229 nM, P: 597 nM)

###

Molecular target: long form of human GPR120 (Homo sapiens)
Experiment: Human GPR120 DiscoveRx PathHunter Beta-Arrestin assay, Procedure β-arrestin A
Conditions: PathHunter CHO-K1 GPR120 β-Arrestin cell line, 3000 cells per well, read-out: hGPR120 β-arrestin A EC50
Excerpt: The binding of an agonist (medium/long chain fatty acids or small molecule agonists) to the G-protein-coupled receptor GPR120 activates phospholipase C, leading to release of intracellular Ca^+2 through the generation of inositol 1,4,5-trisphosphate (InsP3 or IP3). […] In the present method, agonist-induced activation of the human GPR120 receptor is monitored through the use of PathHunter CHO-K1 GPR120 Beta-Arrestin Cell Line engineered by DiscoveRx, as detailed below. […]
Measurement Kind: EC50 (nM)

The following compounds have reported results that may help.
Compound	Measured On	EC50, nM
COc1ccc(-c2snc(Cl)c2COc2ccc(CCCO)c(F)c2F)cc1	long form of human GPR120 (Homo sapiens)	325
CCc1ccc(-c2sccc2COc2ccc(CCC(=O)O)c(C)c2C)cc1	long form of human GPR120 (Homo sapiens)	304
COc1ccc(-c2nsc(C(F)(F)F)c2COc2ccc(CCC(=O)O)c(C)c2C)cc1	long form of human GPR120 (Homo sapiens)	85
CCc1ccc(-c2nsc(C(F)(F)F)c2COc2c(F)cc(CCCO)cc2F)cc1	long form of human GPR120 (Homo sapiens)	58
COc1ccc(-c2csc(C(F)(F)F)c2COc2c(F)cc(CCCO)cc2F)cn1	long form of human GPR120 (Homo sapiens)	71
CCc1ccc(-c2sccc2COc2c(F)cc(CCC(=O)O)cc2F)cc1	long form of human GPR120 (Homo sapiens)	344
CCc1nsc(-c2ccc(C)cc2F)c1COc1c(F)cc(CCC(=O)O)cc1F	long form of human GPR120 (Homo sapiens)	240
O=C(O)CCc1c(F)c(F)c(OCc2c(-c3ccc(Cl)cc3)nsc2C(F)(F)F)c(F)c1F	long form of human GPR120 (Homo sapiens)	183
CCc1ccc(-c2nsc(C(F)(F)F)c2COc2c(F)cc(CC(C)C(=O)O)cc2F)cc1 (centres unmarked)	long form of human GPR120 (Homo sapiens)	246
CCc1ccc(-c2nsc(C(F)(F)F)c2COc2c(C)cc(CCC(=O)O)cc2C)cc1	long form of human GPR120 (Homo sapiens)	203

A. CCc1ccc(-c2snc(Cl)c2COc2ccc(CCCO)c(C)c2C)cc1
B. CCc1ccc(-c2cscc2COc2ccc(CCC(=O)O)c(F)c2F)cc1
## Input // compare: A vs B , metric EC50, want the smaller // output: label of the selected item
## Output A
(A: 229 nM, B: 591 nM)

P. CCc1ccc(-c2snc(Cl)c2COc2ccc(CCC(=O)O)c(C)c2C)cc1
Q. O=C(O)CCc1cc(F)c(OCc2c(-c3ccc(Cl)c(F)c3)nsc2C(F)(F)F)c(F)c1F
## Input Compare EC50: is it lower for P or for Q ? Lab note: record the label of whichever item you select.
## Output Q
(Q: 114 nM, P: 166 nM)

A. CCc1ccc(-c2snc(Cl)c2COc2c(F)cc(CCCO)c(F)c2F)cc1
B. Cc1c(CCCO)cc(F)c(OCc2c(-c3ccc(Cl)cc3)nsc2C(F)(F)F)c1F
## Input Endpoint returns whichever of A and B has the numerically higher EC50. Answer with the label corresponding to your selection.
## Output B
(B: 182 nM, A: 67 nM)
